system: BT-549 breast
// one of 1 (yes) for active, 0 (no) for inactive, no free text

Q: Could you kindly confirm the outcome this assay logged for O=C1Cc2cc(CCn3ccnc3)c(Cl)cc2N1 ?
Result: 0 (no)

Q: Now give it for O=C1NC(=NCc2cccs2)SC1Cc1ccc2ncccc2c1 (centres undefined) too.
Result: 0 (no)

Q: Ok, now COc1cc2c(cc1OC)C(CCc1ccc(Cl)cc1)N(C)CC2 (centres undefined)
Result: 0 (no)

Q: Thanks! And CCOc1ccc(Cc2nccc3cc(OCC)c(OCC)cc23)cc1OCC ?
Result: 0 (no)

Q: Next up: Fc1ccc(-c2nc(-c3nc4ccc(Cl)cc4[nH]3)cc3c2[nH]c2ccccc23)cc1
Result: 0 (no)

Q: Next molecule up: O=C(Nc1cccc(Cl)c1)Nc1cccc(Cl)c1
Result: 0 (no)

Q: Thanks! And O=C1NC(=NCC(CO)c2ccccc2)S/C1=C\c1ccc2ncccc2c1 (centres undefined) ?
Result: 0 (no)

Q: Same read-out for CCCNc1nc(N(C)O)nc(N(C)O)n1 ?
Result: 0 (no)

Q: Moving on to C=C1CC[C@@H]2C(C)(C)[C@@H](O)CC[C@@]2(C)[C@@H]1COc1ccc2ccc(=O)oc2c1
Result: 0 (no)

Q: Moving on to Cn1cc(-c2csc(-c3c[nH]c4ncccc34)n2)c2cc(Br)cnc21
Result: 0 (no)

Q: Entry to check: COC1=C(OC)C(=O)C(/C=C(\C)C(=O)O)=C(C)C1=O
Result: 0 (no)

Q: Next molecule: O=C1C2=C(C(=O)c3c(O)ccc(O)c31)N(c1ccc(N3CCOCC3)nc1)Cc1ccccc1O2
Result: 1 (yes)

Q: Please do the same for CN(C)CC(C(=O)c1ccccc1)c1ccccc1 (centres undefined) as well.
Result: 0 (no)

Q: Lookup CCN(CC)CCN1C(=O)c2cccc3c(-c4ccc5c(c4)ncn5C4CCCCC4)ccc(c23)C1=O
Result: 0 (no)

###

Consider the following compounds; for each one, report its TGI.
system: SK-MEL-2 melanoma; experiment: NCI tumour cell line growth inhibition, 48 h

Q: Name the recorded TGI for Cc1c2ccccc2c(C)c2c3c(ccc12)C(=O)C=CC3=O .
Result: > 84.6 µM

Q: Record: O=C(c1cc2ccccc2[nH]1)C(O)(c1cc2ccccc2[nH]1)c1cc2ccccc2[nH]1
Result: > 246 µM

Q: Next up: Clc1ccccc1C(n1cc(Br)cn1)n1cc(Br)cn1
Result: 45.6 µM

Q: Another compound: CCCCCCCCCc1cc(O)c(O)cc1CCCCCCCCC
Result: > 10 µM

Q: For NC(=O)c1cnc2sc3ccccc3n2c1=O then?
Result: > 100 µM

Q: What do you have for O=C(CCCn1c2c(sc3ncccc32)c(=O)n2nnc(-c3ccccc3)c12)NCCc1cnc[nH]1 ?
Result: 38.9 µM

Q: Another compound to look at: Cc1nn2c(N)cc(=O)nc2nc1/C=C/c1ccc(N(C)C)cc1
Result: > 100 µM

Q: Same read-out for CCCOc1ccc(/C(Cl)=C(\C=O)c2ccc(OC)c(OC)c2)cc1OCCC ?
Result: 32 µM

Q: Try the compound COc1cccc(Nc2nc(NNC(=O)Cc3ccccc3)nc(NNC(=O)c3ccncc3)n2)c1
Result: > 100 µM

Q: What do you have for CC1=C(C(=O)Nc2cccc(C(F)(F)F)c2)C(c2ccc(O)cc2)C(C(=O)Nc2cccc(C(F)(F)F)c2)=C(C)N1 ?
Result: 34.6 µM

Q: # iterate: Cc1cc(C)nc(NS(=O)(=O)c2ccc(Nc3c4ccccc4nc4c(C(=O)NCCN(C)C)ccc(Cl)c34)cc2)n1
Result: 12.1 µM

Q: Here is the next compound: O=C1C=C2S[C@H]3C[C@]2(C=C1Br)c1c(c(O)c2c4c1=NCCC=4C=N2)N3
Result: 1.39 µM

Q: Another compound: CCCS(=O)(=O)O
Result: > 100 µM

Q: What about this compound? Clc1ccc(-c2nc3c(-c4ccc(Cl)cc4)nc(-c4ccccc4)cn3c2-c2ccc(Cl)cc2)cc1
Result: > 50 µM

Q: Queued: O=C(CSc1nc2ccc(I)cc2c(=O)n1Cc1ccccc1)N/N=C/c1ccccc1
Result: 35.6 µM

Q: Same read-out for O=C(N/N=C(/COc1cccc(Cl)c1)N=Cc1ccncc1)c1ccncc1 ?
Result: > 100 µM

Q: Further, for O=C(CC(=O)c1ccncc1)c1ccccc1 ?
Result: > 100 µM

Q: Could you do the same for C=CCN1CCC(OC(=O)C(O)(/C=C\CC)C2CCCC2)CC1 (stereo unspecified) , please?
Result: > 100 µM

Q: And for OC1CN(OC/C=C/c2ccccc2)CC(O)C1O (stereo unspecified) ?
Result: > 100 µM

Q: // query: Cc1cc2c3ccccc3n(C)c2c2c1C(=O)c1ccccc1C2=O
Result: 41.3 µM

Q: Then COc1ccc2c(c1)C(=O)c1c-2n(CCCN=[N+]=[N-])c(=O)c2ccccc12 ?
Result: > 100 µM

###

tested on: IGROV1 ovarian; assay: NCI tumour cell line growth inhibition, 48 h
valueKind: TGI (µM)
Only the number, expressed in µM, is required.

Q: Could you tell me which TGI is on file for COc1ccc(C2CCc3nc4nc(N)nc(N)c4cc3C2)cc1 (centres undefined) ?
Result: 37.9

Q: Subsequent entry: CCOc1ccc(Cc2nccc3cc(OCC)c(OCC)cc23)cc1OCC
Result: 12.7

Q: Moving on to COc1cc(/C=C/C(=O)C(=Cc2ccc(F)c(F)c2)C(=O)/C=C/c2ccc(O)c(OC)c2)ccc1O
Result: 67.9

Q: Try the compound Cc1c2c(c(C)c3c[n+](C)ccc13)Oc1ccccc1O2
Result: 50

Q: Moving on to Cc1ccc2nc3c(C(=O)NCCN(C)C)cccc3cc2c1
Result: 6.5

Q: Entry to check: CCCNc1nc(N(C)O)nc(N(C)O)n1
Result: 14.6

###

test system: HT29 colon; assay: NCI tumour cell line growth inhibition, 48 h
valueKind: TGI

Q: Dear colleague, I am looking for the recorded TGI of the following molecule: NC(=S)N/N=C(/CC(=O)c1ccc([N+](=O)[O-])cc1)C(=O)Nc1ncc([N+](=O)[O-])s1
Result: > 100 µM

Q: Would you kindly repeat that for Cc1ccnc(NS(=O)(=O)c2ccc(NC(=O)c3ccc4nc5ccccc5c(Nc5ccc(S(=O)(=O)Nc6nccc(C)n6)cc5)c4c3)cc2)n1 ?
Result: > 100 µM

Q: Record: CCCCC1Cc2cc(O)ccc2-c2n1c1cc(O)ccc1[n+]2C (stereo not given) (tested in a mixture with another compound)
Result: > 100 µM

Q: Please do the same for NCCCNCCSSCc1ccccc1CSSCCNCCCN as well.
Result: 27.4 µM

Q: Likewise for CCOc1ccc(Cc2nccc3cc(OCC)c(OCC)cc23)cc1OCC ?
Result: 12.6 µM

Q: For CCOc1ccccc1NC(=O)C(=O)CC(=O)C1=C(C)Nc2ccccc2S1 then?
Result: > 100 µM

Q: Same read-out for COC1/C=C/C(C)C(OC)CC(O)/C=C/C(C)C(C(C)C(OC)C(C)CCC(=O)C(C)C(C/C=C/N(C)C=O)OC)OC(=O)/C=C/C=C(\C)CC(OC)C(OC)C2=CC(=O)O[C@@H](C(C)C(OC)C1)[C@H]2O (stereo not given in full) ?
Result: > 25 µM

Q: Consider next the molecule C/C(CC(O)(C(F)(F)F)C(F)(F)F)=N\N in the same way.
Result: > 10 µM

Q: Another molecule to check: CCCCCCCCCc1cc(O)c(O)cc1CCCCCCCCC
Result: > 10 µM

Q: Same again, this time with COc1ccc(Nc2c3ccccc3nc3c2c2ccccc2n3C)cc1
Result: > 100 µM

###

system: MCF7 breast
Would you mind telling me the reported GI50 of each entry?

Q: Find the measured GI50: item COc1cccc(Nc2nc(NNC(=O)Cc3ccccc3)nc(NNC(=O)c3ccncc3)n2)c1 , target or system MCF7 breast.
Result: > 100 µM

Q: Same again, this time with Cc1ccc(-n2c3c(c4c(CN5CCCCC5)c(O)ccc42)CCc2ccccc2C3=O)cc1
Result: > 100 µM

Q: Now consider CC1=C(N2CC2)C(=O)C(CO)=C(N2CC2)C1=O and answer again.
Result: 0.00487 µM

###

tested on: SK-MEL-5 melanoma; experiment: NCI tumour cell line growth inhibition, 48 h
valueKind: TGI

Q: Quick one: TGI for CN(C)CC(C(=O)c1ccccc1)c1ccccc1 (stereo unspecified) ?
Result: 3.45 µM

Q: Now consider C/C=C/C=N/N(c1nnc(-c2ccccc2)c(-c2ccccc2)n1)S(=O)(=O)c1ccc(C)cc1 and answer again.
Result: 23.1 µM

Q: And for Cc1ccc(SSCCCS(=O)O)cc1 ?
Result: > 100 µM

Q: Would you kindly repeat that for COc1ccc2c(c1)/C(=C(\C(Cl)=C(Cl)Cl)[N+](=O)[O-])N2 ?
Result: > 100 µM

Q: Next record, please: CCCc1cc(=O)oc2c(C(=O)CC(C)C)c(O)c(CC=C(C)C)c(O)c12
Result: 11 µM

Q: Would you mind doing CCOc1ccccc1NC(=O)C(=O)CC(=O)C1=C(C)Nc2ccccc2S1 as well?
Result: > 100 µM

Q: Check CC1=C(C(=O)Nc2cccc(C(F)(F)F)c2)C(c2ccc(O)cc2)C(C(=O)Nc2cccc(C(F)(F)F)c2)=C(C)N1 too.
Result: 33.6 µM

Q: Would you kindly repeat that for COC(=O)C12CCC(C(=O)OC)(Cc3c(c4ccccc4n3S(=O)(=O)c3ccccc3)C1)C2=O (stereo unspecified) ?
Result: > 100 µM

Q: Lookup COc1cc(Cn2c3c(c4c(CN(C)C)c(O)ccc42)C(=O)c2ccccc2C3=O)cc(OC)c1
Result: 26 µM

Q: Next compound: O=C1C=C2S[C@H]3C[C@]2(C=C1Br)c1c(c(O)c2c4c1=NCCC=4C=N2)N3
Result: 2.38 µM

Q: Another compound to look at: N#Cc1ccc(Oc2nccc(-c3c(-c4ccc(F)cc4)ncn3C3CCNCC3)n2)cc1
Result: > 25 µM

Q: What do you have for Cc1cccc2c1Oc1cc(Cl)ccc1C2NC(=O)CCN1CCCCC1 (stereo unspecified) ?
Result: 30 µM

Q: Follow-up entry: C[N+](C)(C)CCOP(=O)(O)OP(=O)([O-])OCC1CCC(n2ccc(N)nc2=O)O1 (stereo unspecified)
Result: > 100 µM

Q: Can you check O=C1Cc2cc(CCn3ccnc3)c(Cl)cc2N1 next?
Result: > 100 µM

Q: Lookup COC(=O)C(C(=O)C(=O)Nc1cccc(O)c1)c1nc2ccc(Cl)cc2[nH]c1=O (stereo unspecified)
Result: > 100 µM

Q: Moving on to the next compound: COc1ccc(C2CCc3nc4nc(N)nc(N)c4cc3C2)cc1 (stereo unspecified)
Result: > 100 µM

Q: What about COC(=O)N1CC[C@@H]2CCC=C(c3cccc4c3OCO4)[C@@H]21 ?
Result: > 100 µM

Q: Now consider CN1CCc2c(sc3nc(Nc4ccccc4)n(N)c(=O)c23)C1 and answer again.
Result: > 100 µM

Q: Would you mind doing CC(=O)Nc1ccc2nncnc2c1 as well?
Result: > 100 µM

Q: Let us now turn to O=C1C2=C(C(=O)c3c(O)ccc(O)c31)N(c1ccc(N3CCOCC3)nc1)Cc1ccccc1O2
Result: 2.76 µM

Q: # iterate: CCOC(=O)/C(C(=S)NC)=C(/N)N1CCCC1
Result: > 100 µM
